meta.source: PubChem BioAssay (NCI)

- System: SK-MEL-2 melanoma
- EXPERIMENTAL DETAILS: NCI tumour cell line growth inhibition, 48 h
Parameter: GI50. Scope: all listed entries.

Here is how some compounds turned out for GI50.
COMPOUND: NCCc1ccc(S(=O)(=O)F)cc1
TEST TARGET: SK-MEL-2 melanoma
READOUT KIND: GI50
RESULT: 90.9 µM
//
COMPOUND: CN(C)CCCN(CCC1CCCCC1)CCC1CCCCC1
TEST TARGET: SK-MEL-2 melanoma
READOUT KIND: GI50
RESULT: 1.93 µM

Turning now to a further compound:
stdin: Identify GI50 associated with the compound COC(=O)C1=C(O)[C@H](C(=O)OC)C2(O)C(C(=O)OC)[C@H](c3ccc(OC(=O)C(C)c4ccccc4)cc3)C[C@@H]1[C@@H]2C(=O)OC (stereo partly drawn)
stdout: 31 µM
